All figures here come from PubChem BioAssay AID624129.

# target_desc: Apelin receptor (Homo sapiens)
# assay_explanation: potency against CXCR6 with APJ panel – cell-based, beta-arrestin, DiscoveRx, uHTS hits, dose response (AID 624129)
# particulars: CXCR6 beta-arrestin (DiscoveRx) antagonist cell assay, APJ, run 2, dose range 1
measured_attribute: IC50 (µM)
Answer with a number only, understood to be in µM.

*Q* Under Apelin receptor (Homo sapiens): IC50 value of `CCO[C@@H]1OC(C(=O)N2CCN(Cc3ccccc3)CC2)=C[C@H](c2ccc(Br)cc2)[C@H]1CCCO` ?
*A* 21.1

*Q* Under Apelin receptor (Homo sapiens): IC50 value of `Cc1ccc(/C=N/NC(=S)N2CCOCC2)cc1` ?
*A* 5.63

*Q* Under Apelin receptor (Homo sapiens): IC50 value of O=C1C(Cc2ccccc2)Nc2ncnc(N3CCN(c4ccccc4)CC3)c2N1Cc1ccc(Br)cc1 (stereo unspecified) ?
*A* 3.32

*Q* Under Apelin receptor (Homo sapiens): IC50 value of `CCOC(=O)c1c(SCCN2CCCCC2)n(-c2ccccc2)c(=S)n(-c2ccccc2)c1=O` ?
*A* 7.04

*Q* Under Apelin receptor (Homo sapiens): IC50 value of O=C(Nc1ccccc1Cl)/C(Cl)=C(\Cl)S(=O)c1ccccc1 (stereo unspecified) ?
*A* 11.9

*Q* Under Apelin receptor (Homo sapiens): IC50 value of `Cc1ccc(OCCn2c(NC(=O)c3ccco3)nc3ccccc32)cc1` ?
*A* 8.87

*Q* Under Apelin receptor (Homo sapiens): IC50 value of `O=C(N/N=C(\c1ccccc1)c1cccnc1)c1cccc(F)c1` ?
*A* 5.15

*Q* Under Apelin receptor (Homo sapiens): IC50 value of `Oc1c(I)cc(Cl)c2cccnc12` ?
*A* 12.7

*Q* Under Apelin receptor (Homo sapiens): IC50 value of `O=C(OCn1ncc(Cl)c(Cl)c1=O)c1cccc(C(F)(F)F)c1` ?
*A* 32.5

*Q* Under Apelin receptor (Homo sapiens): IC50 value of `COc1cccc(-n2nc(C#N)c(Cl)cc2=O)c1` ?
*A* 7.26

*Q* Under Apelin receptor (Homo sapiens): IC50 value of `O=C(Nc1nc(-c2ccccn2)cs1)Nc1ccc(F)cc1F` ?
*A* 9.65

*Q* Under Apelin receptor (Homo sapiens): IC50 value of O=C1C(Cc2ccccc2)Nc2ncnc(N3CCN(c4ccccc4)CC3)c2N1Cc1ccc(Cl)cc1 (stereo unspecified) ?
*A* 5.81

*Q* Under Apelin receptor (Homo sapiens): IC50 value of `CN(O)C(=S)c1ccccc1` ?
*A* 6.23

*Q* Under Apelin receptor (Homo sapiens): IC50 value of `CCOC(=O)CSc1cccc2cccnc12` ?
*A* 6.81

*Q* Under Apelin receptor (Homo sapiens): IC50 value of `COc1ccc(/C=C/c2ccc3cccc(O)c3n2)c(OC)c1OC` ?
*A* 8.96

*Q* Under Apelin receptor (Homo sapiens): IC50 value of `Cc1ccc2c(Cl)cc(Cl)c(O)c2n1` ?
*A* 5.23

*Q* Under Apelin receptor (Homo sapiens): IC50 value of `Cc1[nH][nH]c(=O)c1C(c1c(C)[nH][nH]c1=O)c1cn(Cc2ccc(F)cc2)c2ccccc12` ?
*A* 32.9

*Q* Under Apelin receptor (Homo sapiens): IC50 value of `COc1ccc(C(=O)N/N=C(\C)c2ccccn2)cc1OC` ?
*A* 2.48

*Q* Under Apelin receptor (Homo sapiens): IC50 value of COc1ccc(NC(=O)/C(Cl)=C(/Cl)S(=O)Cc2ccccc2)cn1 (stereo unspecified) ?
*A* 7.69

*Q* Under Apelin receptor (Homo sapiens): IC50 value of `CC(=NNc1nc2ccccc2s1)c1ncccn1` ?
*A* 20.5

*Q* Under Apelin receptor (Homo sapiens): IC50 value of `O=[N+]([O-])c1c(Nc2ccc(O)cc2)cc(Cl)c2nonc12` ?
*A* 4.41

*Q* Under Apelin receptor (Homo sapiens): IC50 value of C=C1C(=O)OC2C1CCC(C)=C1C(=O)C3OC3(C)C12 (stereo unspecified) ?
*A* 11.2

*Q* Under Apelin receptor (Homo sapiens): IC50 value of `O=C(Nc1nccs1)c1sc2cc(Cl)ccc2c1Cl` ?
*A* 45.4

*Q* Under Apelin receptor (Homo sapiens): IC50 value of `CN(C)S(=O)(=O)c1cccc(NC(=O)CSc2cccc3cccnc23)c1` ?
*A* 47.7

*Q* Under Apelin receptor (Homo sapiens): IC50 value of C/C(=N\NC(=O)C(C)Oc1ccc([N+](=O)[O-])cc1)c1ccccn1 (stereo unspecified) ?
*A* 3.41

*Q* Under Apelin receptor (Homo sapiens): IC50 value of `C/C(=N\NC(=O)c1cc(-c2cccs2)nc2ccccc12)c1ccccn1` ?
*A* 15.3

*Q* Under Apelin receptor (Homo sapiens): IC50 value of `CCN(CC)CC(C)(C)C(=O)/C=C/c1ccc(/C=C/C(=O)C(C)(C)CN(CC)CC)cc1` ?
*A* 3.91

*Q* Under Apelin receptor (Homo sapiens): IC50 value of `Cc1ccc(OCCN2C(=O)c3ccccc3C2=O)c([N+](=O)[O-])c1` ?
*A* 7.87

*Q* Under Apelin receptor (Homo sapiens): IC50 value of `Cc1ccc2oc(/N=C(\N)NC(=O)C(C)(C)C)nc2c1` ?
*A* 19

*Q* Under Apelin receptor (Homo sapiens): IC50 value of `C=C(CN(C)C)C(=O)c1ccc(C)cc1C` ?
*A* 39.9

*Q* Under Apelin receptor (Homo sapiens): IC50 value of `Nc1cc(Cl)c2nonc2c1[N+](=O)[O-]` ?
*A* 13.5

*Q* Under Apelin receptor (Homo sapiens): IC50 value of `FC(F)(F)c1cnc(NNC(=S)Nc2ccc(Cl)cc2)c(Cl)c1` ?
*A* 17

*Q* Under Apelin receptor (Homo sapiens): IC50 value of `C/C(=N\NC(=O)Cc1ccc(Cl)cc1)c1ccccn1` ?
*A* 4.94

*Q* Under Apelin receptor (Homo sapiens): IC50 value of `O=C(Cn1sc2ccccc2c1=O)NC12CC3CC(CC(C3)C1)C2` ?
*A* 5.54

*Q* Under Apelin receptor (Homo sapiens): IC50 value of `COc1ccc(NC(=O)/C(Cl)=C(/Cl)S(=O)(=O)Cc2ccc(C)cc2)cn1` ?
*A* 0.685

*Q* Under Apelin receptor (Homo sapiens): IC50 value of `O=c1oc2ccccc2c(Cl)c1CN1CCCCC1` ?
*A* 21.6

*Q* Under Apelin receptor (Homo sapiens): IC50 value of `CC(=O)OCCNc1cc(Sc2nc3ccccc3[nH]2)c2nonc2c1[N+](=O)[O-]` ?
*A* 7.17

*Q* Under Apelin receptor (Homo sapiens): IC50 value of `Oc1cccc2ccc(/C=C/c3c(F)cccc3Cl)nc12` ?
*A* 11.2

*Q* Under Apelin receptor (Homo sapiens): IC50 value of `Oc1c(Cl)cc(Cl)c2cccnc12` ?
*A* 4.91
